# PROTOCOL_DESCRIPTION: S. cerevisiae growth modulation with rapamycin, primary screen, strain BY4716, OD600, 96 h (AID 1091); note: test concentration not given here
# CONDITION_LABEL: higher = more signal, called active from +8 up or from −8 down
MEASURE_NAME: z-score
Numbers only.

{"columns": ["MOLECULE", "z-score"],
 "data": [
  ["NC(=O)N1C(=O)C2C(C1=O)C1C=C(CCCO)C2C(C2CC2)N1Cc1cccc(OC(F)(F)F)c1 (centres undefined)", -1.47],
  ["CC(C)(C)OC(=O)CC[C@]12N=C(c3ccc(OCCCO)cc3)O[C@H]1c1ccccc1N(Cc1ccccc1)C2=O", 5.79],
  ["O=C1C2C=CC(C(O)c3cccc(O)c3)N(Nc3ccccc3)C2C(=O)N1c1ccccc1 (centres undefined)", 0.299]
]}

Now look at this one.
Prompt: Determine its reported z-score: COCCCNC(=O)[C@@]1(c2ccc([N+](=O)[O-])cc2)CC(=O)N(CC23CC4CC(CC(C4)C2)C3)[C@@H]1c1ccc(CO)cc1I
Response: 4.92
